For each of the molecules below, state its IC50.

# lookup: `Cc1cnc(Nc2cc(C)n(C)n2)nc1-c1c[nH]c2c(N3Cc4c(cccc4-c4ccnc(F)c4)C3=O)cccc12` on GCN2 (Homo sapiens (Human)), IC50 = < 10 nM

# lookup: `Cc1cnc(Nc2cc(C)n(C)n2)nc1-c1c[nH]c2c(N3Cc4c(cccc4C4=CCSCC4)C3=O)cccc12` on GCN2 (Homo sapiens (Human)), IC50 = < 10 nM

# lookup: `Cc1cnc(Nc2cc(C)n(C)n2)nc1-c1c[nH]c2c(NC(=O)CN3CC[C@H](C(=O)N4CC=CCC4)C3)cccc12` on GCN2 (Homo sapiens (Human)), IC50 = 10 to 100 nM

# lookup: `Cc1cnc(NC2CC2)nc1O[C@H]1CCN(CC(=O)Nc2cccc3c(-c4nc(Nc5cc(C)n(C)n5)ncc4C)c[nH]c23)C1` on GCN2 (Homo sapiens (Human)), IC50 = 10 to 100 nM

# lookup: `Cc1cnc(Nc2cc(C)n(C)n2)nc1-c1c[nH]c2c(NC(=O)CN3CC[C@H](Oc4ccn(C)n4)C3)cccc12` on GCN2 (Homo sapiens (Human)), IC50 = < 10 nM

# lookup: `Cc1cnc(Nc2cc(C)n(C)n2)nc1-c1c[nH]c2c(N3Cc4ccc(-c5ccccc5)cc4C3=O)cccc12` on GCN2 (Homo sapiens (Human)), IC50 = 100 to 1000 nM
